I'd be grateful if you could share measured inhibition for these entries.
biological target: Methionyl-tRNA synthetase, putative (Leishmania donovani (strain BPK282A1)) (UniProt E9BF75); test: Leishmania donovani Methionine tRNA synthetase (LdMetRS):v6. Primary screen assay; format: functional; design: conc 80 nM, time 150 minutes
Sequence (E9BF75 as listed by the source): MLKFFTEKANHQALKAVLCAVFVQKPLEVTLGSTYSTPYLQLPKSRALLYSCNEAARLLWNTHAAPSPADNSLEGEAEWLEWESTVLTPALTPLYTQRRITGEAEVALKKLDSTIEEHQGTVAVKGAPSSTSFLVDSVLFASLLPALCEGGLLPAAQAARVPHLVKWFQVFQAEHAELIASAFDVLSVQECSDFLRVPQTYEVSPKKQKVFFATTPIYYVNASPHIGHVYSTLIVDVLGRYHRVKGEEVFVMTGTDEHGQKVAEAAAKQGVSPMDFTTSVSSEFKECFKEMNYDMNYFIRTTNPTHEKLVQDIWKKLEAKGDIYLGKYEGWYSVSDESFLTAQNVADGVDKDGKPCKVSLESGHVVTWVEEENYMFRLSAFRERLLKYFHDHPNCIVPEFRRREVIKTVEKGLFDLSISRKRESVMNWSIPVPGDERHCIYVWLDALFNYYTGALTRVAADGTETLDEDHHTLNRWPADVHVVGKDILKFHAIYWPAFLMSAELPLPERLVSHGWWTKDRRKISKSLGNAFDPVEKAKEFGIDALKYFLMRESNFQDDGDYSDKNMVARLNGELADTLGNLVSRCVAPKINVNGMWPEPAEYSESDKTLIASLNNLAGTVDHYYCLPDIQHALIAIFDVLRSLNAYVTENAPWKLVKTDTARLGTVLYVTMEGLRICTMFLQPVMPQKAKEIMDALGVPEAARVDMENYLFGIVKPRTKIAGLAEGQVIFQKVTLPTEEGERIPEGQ
In all, about 68,000 compounds went through this assay and about 25 (0.04%) showed an effect of 50% or more. This excerpt belongs to a sample that is enriched for strong results.
Numbers only, in %.

Recorded inhibition, per entry:
compound | inhibition (%)
COCCN1CCN(Cc2ccc(F)c(C)c2)[C@H]2CS(=O)(=O)C[C@H]21 | 0.741
COc1cccc(NC(=O)N2CC[C@@H]3CN(C)S(=O)(=O)[C@@H]3CC2)c1 | -1.1
CN1CCC(CO[C@H]2CN(C(=O)c3cccn3C)[C@@H]3COC[C@H]23)CC1 | 8.4
CCS(=O)(=O)N1C[C@H]2CCC[C@@]2(COc2ccccn2)C1 | 12.9
CN(C)C(=O)[C@@H]1CCO[C@@H]2CCN(CCOCc3ccccc3)C[C@H]21 | 1.54

Would you be so kind as to report inhibition for each listed record?
1. CC(C)=CCN1C[C@@H]2CN(C(=O)c3cnccc3C)C[C@]2(C(=O)O)C1
2. NC(=O)c1ccc(OCC(=O)N2CCCC2c2ccc[nH]2)cc1 (configuration not stated)
3. CN(CC1CC1)c1ccc2ccc(C(=O)NCCc3ccccc3)cn12
4. Cc1ccc(-c2ncc(CNc3cnccc3CO)s2)cc1
5. O=C1CC[C@H]2CN(c3ncccc3F)CC[C@H]2N1CCc1ccccc1
6. O=C(CCn1cc(Cl)cn1)N1C[C@@H]2CC[C@H](C1)N(Cc1ccccn1)C2
7. CN(C)CCNC(=O)c1ccc2ccc(N(C)CC3CC3)n2c1

Response:
8.52
15.5
51
1.86
-0.347
15.8
25.3

For every listed record, write down its inhibition.
1. CCn1cc(CN2C[C@H]3CC[C@@H]2CN(C(=O)C2CCC2)C3)cn1
2. Cc1ccc(CN2CC[C@H]3OCC[C@@]3(C(=O)N3CCCO3)C2)o1
3. CCS(=O)(=O)N1CC[C@H]2O[C@H](c3nc(C)no3)CC[C@H]21

Response:
12.2
6.85
21

Provide reported inhibition for each item, in the same order as listed.
1. COCCNC(=O)c1ccc2ccc(N(C)CC3CC3)n2c1
2. Cc1cncc(C(=O)N2C[C@H]3CCC[C@@]3(COc3ccccn3)C2)c1

Response:
1: 22.1; 2: 8.5

Please look at the items below and tell me inhibition for each one, in order.
1. Cn1ccnc1CN1C[C@H]2CN(S(C)(=O)=O)CCN2C1=O
2. CCCN1C[C@H]2CC[C@@H]1CN(c1nnc(C(C)C)s1)C2

Response:
[12, 9.31]

Give inhibition for each listed item.
1. CC1CCN(c2ccc(C(=O)N3CCCC3c3nncn3C)cn2)CC1 (configuration not stated)
2. O=C1[C@H]2CC[C@H](CN(C3CCOCC3)C2)N1Cc1cscn1
3. COCc1cc(N2CCc3onc(-c4cccc(OC)c4)c3C2)ncn1

Response:
[4.75, 8.93, 12.5]
